# tgt: D(3) dopamine receptor (Rattus norvegicus)
# Sequence (P19020 whole entry): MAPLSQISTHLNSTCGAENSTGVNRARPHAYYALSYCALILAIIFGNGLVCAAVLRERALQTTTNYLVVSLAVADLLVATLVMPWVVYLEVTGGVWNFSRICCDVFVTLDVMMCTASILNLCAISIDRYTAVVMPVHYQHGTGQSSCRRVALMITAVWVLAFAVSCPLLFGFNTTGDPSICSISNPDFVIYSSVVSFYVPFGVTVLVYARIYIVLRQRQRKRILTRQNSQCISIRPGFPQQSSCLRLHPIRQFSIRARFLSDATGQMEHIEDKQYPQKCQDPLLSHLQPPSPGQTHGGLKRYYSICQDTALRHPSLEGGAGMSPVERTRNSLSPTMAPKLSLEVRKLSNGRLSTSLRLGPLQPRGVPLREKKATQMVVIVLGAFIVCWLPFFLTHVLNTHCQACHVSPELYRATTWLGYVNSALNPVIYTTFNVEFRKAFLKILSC
Param label: returns y when Ki < 70 nM, returns n otherwise, including exact equality.

Please review the entries below; each comes with its answer.
chemical_smiles=CCCN1CCC2=C(CCc3ccccc32)C1 class=y
chemical_smiles=c1ccc(CCN2CCC3=C(CCc4ccccc43)C2)cc1 class=n
chemical_smiles=CCCCN1CCC2=C(CCc3ccccc32)C1 class=y
chemical_smiles=CCN1CCC2=C(CCc3ccccc32)C1 class=n
chemical_smiles=O=C(NCCCCN1CCC2=C(CCc3ccccc32)C1)c1ccc2ccccc2c1 class=y
chemical_smiles=CCCCCN1CCC2=C(CCc3ccccc32)C1 class=y

Exercise: Please state whether Ki is below 70 nM for c1ccc(CCCCN2CCC3=C(CCc4ccccc43)C2)cc1
Solution: n

Exercise: Just wondering, is Ki of c1ccc(CCCN2CCC3=C(CCc4ccccc43)C2)cc1 below 70 nM?
Solution: n
